Reported MIC90 values follow for various compounds
- Tested on: Enterococcus faecalis
- protocolNotes: Antimicrobial activity against vancomycin-susceptible Enterococcus faecalis clinical isolates by broth microdilution method
- Type: functional
propertyLabel: MIC90 (µg/mL)

>  <sampleSmiles>
C[C@H]1COc2c(N3CCN(C)CC3)c(F)cc3c(=O)c(C(=O)O)cn1c23.C[C@H]1COc2c(N3CCN(C)CC3)c(F)cc3c(=O)c(C(=O)O)cn1c23.O

>  <targetOrTestSystem>
Enterococcus faecalis

>  <censoringOperator>
>

>  <observedValue>
16

$$$$
>  <sampleSmiles>
CC(=O)NC[C@H]1CN(c2ccc(N3CCOCC3)c(F)c2)C(=O)O1

>  <targetOrTestSystem>
Enterococcus faecalis

>  <censoringOperator>
=

>  <observedValue>
2

$$$$
>  <sampleSmiles>
CN[C@@H]1[C@H](O[C@H]2[C@H](O[C@H]3[C@H](O)[C@@H](O)[C@H](N=C(N)N)[C@@H](O)[C@@H]3N=C(N)N)O[C@@H](C)[C@]2(O)C=O)O[C@@H](CO)[C@H](O)[C@H]1O

>  <targetOrTestSystem>
Enterococcus faecalis

>  <censoringOperator>
>

>  <observedValue>
1000

$$$$
>  <sampleSmiles>
CN[C@H](CC(C)C)C(=O)N[C@H]1C(=O)N[C@@H](CC(N)=O)C(=O)N[C@H]2C(=O)N[C@H]3C(=O)N[C@H](C(=O)N[C@H](C(=O)O)c4cc(O)cc(O)c4-c4cc3ccc4O)[C@H](O)c3ccc(c(Cl)c3)Oc3cc2cc(c3O[C@@H]2O[C@H](CO)[C@@H](O)[C@H](O)[C@H]2O[C@H]2C[C@](C)(N)[C@H](O)[C@H](C)O2)Oc2ccc(cc2Cl)[C@H]1O

>  <targetOrTestSystem>
Enterococcus faecalis

>  <censoringOperator>
=

>  <observedValue>
2

$$$$
>  <sampleSmiles>
CN[C@H](CC(C)C)C(=O)N[C@H]1C(=O)N[C@@H](CC(N)=O)C(=O)N[C@H]2C(=O)N[C@H]3C(=O)N[C@H](C(=O)N[C@H](C(=O)O)c4cc(O)cc(O)c4-c4cc3ccc4O)[C@H](O[C@H]3C[C@](C)(N)[C@@H](O)[C@H](C)O3)c3ccc(c(Cl)c3)Oc3cc2cc(c3O[C@@H]2O[C@H](CO)[C@@H](O)[C@H](O)[C@H]2O[C@H]2C[C@](C)(NCc3ccc(-c4ccc(Cl)cc4)cc3)[C@@H](O)[C@H](C)O2)Oc2ccc(cc2Cl)[C@H]1O

>  <targetOrTestSystem>
Enterococcus faecalis

>  <censoringOperator>
=

>  <observedValue>
0.06

$$$$
>  <sampleSmiles>
CC1(C)S[C@@H]2[C@H](NC(=O)[C@H](N)c3ccccc3)C(=O)N2[C@H]1C(=O)O

>  <targetOrTestSystem>
Enterococcus faecalis

>  <censoringOperator>
=

>  <observedValue>
1

$$$$
>  <sampleSmiles>
CCCCCCCCCC(=O)N[C@@H](Cc1c[nH]c2ccccc12)C(=O)N[C@H](CC(N)=O)C(=O)N[C@@H](CC(=O)O)C(=O)N[C@@H]1C(=O)NCC(=O)N[C@@H](CCCN)C(=O)N[C@@H](CC(=O)O)C(=O)N[C@H](C)C(=O)N[C@@H](CC(=O)O)C(=O)NCC(=O)N[C@H](CO)C(=O)N[C@@H]([C@H](C)CC(=O)O)C(=O)N[C@@H](CC(=O)c2ccccc2N)C(=O)O[C@@H]1C

>  <targetOrTestSystem>
Enterococcus faecalis

>  <censoringOperator>
=

>  <observedValue>
2

$$$$
